Where do these numbers come from? They come from PubChem BioAssay (NCI).

test system: HCT-15 colon; assay: NCI tumour cell line growth inhibition, 48 h
measuredEndpoint: TGI

Known value: HCT-15 colon TGI of the compound COC(=O)C1=CC(=O)OC1(OO)c1ccccc1 (stereo unspecified) equals > 100 µM

Known value: HCT-15 colon TGI of the compound CCOC(=O)CNC(=O)c1ccccc1Nc1ccnc(C(F)(F)F)c1 equals > 100 µM

Known value: HCT-15 colon TGI of the compound N#Cc1c(-c2ccccc2)nc(-c2ccccc2)sc1=S equals > 100 µM

Known value: HCT-15 colon TGI of the compound NC(=O)NNC(=O)c1nc[nH]c1[N+](=O)[O-] equals > 100 µM

Known value: HCT-15 colon TGI of the compound COc1ccc2ncn(-c3cc(O[C@H](C)c4ccccc4Cl)c(C(N)=O)s3)c2c1 equals > 25 µM

Known value: HCT-15 colon TGI of the compound O=c1[nH]/c(=C/c2ccc(OCc3ccccc3)cn2)c(=O)[nH]/c1=C/c1ccc(O)cc1 equals > 100 µM

---

system: DMS 114 small cell lung; experiment: NCI tumour cell line growth inhibition, 48 h
measuredEndpoint: TGI

# compound Cc1cc(C)[n+](CCOc2ccc(/C(=C(/Cl)c3ccccc3)c3ccccc3)cc2)c(C)c1 ; its TGI = 5.43 µM

# compound O=C(Cc1ccccc1)NN1C(=O)C(Cl)C1c1ccc(O)cc1 (configuration not stated) ; its TGI = > 100 µM

# compound O=C(CSc1nnc(Cc2ccccc2)o1)Nc1ccc([N+](=O)[O-])cc1 ; its TGI = 72.2 µM

# compound CC(=O)C1=C(C)NC2C=CC=CN12 (configuration not stated) ; its TGI = > 100 µM

# compound O=C1c2ccc3c4ccccc4n(Cc4ccccc4)c3c2C(=O)N1c1ccccc1 ; its TGI = 34.1 µM

# compound CC12CCCCC1(C)C2Sc1ccccc1 (configuration not stated) ; its TGI = > 77.8 µM

# compound NC1=NS(=O)(=O)Nc2nc(-c3ccc([N+](=O)[O-])o3)[nH]c21 ; its TGI = 34 µM

# compound Nc1ccc2[nH]c3c(-c4ccccc4)nccc3c2c1 ; its TGI = > 100 µM

# compound COc1cc2cccc(N=Cc3cccc(OC)c3OC(C)C)c2cc1OC ; its TGI = 38.7 µM

# compound CN1NC(=Nc2ccccc2)Sc2c1cnn(-c1ccccc1)c2=O ; its TGI = > 100 µM

# compound NC1=NS(=O)(=O)Nc2nc(-c3ccc([N+](=O)[O-])cc3)[nH]c21 ; its TGI = > 100 µM

# compound COc1ccc2[nH]c3c4c(ccc3c2c1)C(=O)C=CC4=O ; its TGI = 27 µM

# compound Cc1[nH]c(=O)[nH]c(=O)c1/C=C/C(=O)O ; its TGI = > 1000 µM

# compound CC(=O)OC1CC2C(C)(C)OC(=O)CC(OC(C)=O)[C@]2(C)C2CCC3(C)C(=CCC3[C@H]3COC(=O)C3)[C@]12C (some centres not stated) ; its TGI = > 100 µM

# compound COc1ccc(/C(Cl)=C(\C=O)c2ccc(F)cc2)cc1OC ; its TGI = 46.2 µM

# compound O=S1OC2(c3ccccc3-c3ccccc32)c2ccccc21 (configuration not stated) ; its TGI = > 100 µM

# compound COC(=O)/C(C=O)=C/Sc1ccccc1 ; its TGI = 41 µM

# compound COC(=O)CCC(=O)CC1CC(=O)C2CCCN12 (configuration not stated) ; its TGI = > 100 µM

# compound COc1cccc(C2CC(C)=Nc3c(ccc4c3C(=O)c3ccccc3C4=O)N2)c1O (configuration not stated) ; its TGI = > 100 µM

# compound CC(=O)c1sc(-c2nc(C)c(C(=O)/C=C\c3ccc(/C=C\C(=O)c4sc(-c5nc(C)c(C(C)=O)s5)nc4C)cc3)s2)nc1C ; its TGI = > 100 µM

# compound CC(C)CCCC(C)[C@H]1CCC2[C@H]3C(CC[C@@]21C)[C@@]1(C)CCC=C[C@]12C[C@@H]2[C@@H]3O (some centres not stated) ; its TGI = > 100 µM

# compound COC(=O)OCC1OC(N2C(=O)NC(=O)C(Br)C2N=[N+]=[N-])CC1OC(=O)OC (configuration not stated) ; its TGI = > 100 µM

---

system: OVCAR-3 ovarian; experiment: NCI tumour cell line growth inhibition, 48 h
measuredEndpoint: TGI

# compound C=CCSS/C=C/CS(=O)CC=C (stereo unspecified) ; its TGI = > 95.9 µM

# compound O=c1[nH]c2cc(Cl)ccc2nc1/C(=N\O)C(O)c1ccc(Cl)cc1Cl (stereo unspecified) ; its TGI = > 100 µM

# compound CC1(C)O/C(=C\c2ccccc2)C(=O)/C(=C/c2ccccc2)O1 ; its TGI = > 100 µM

# compound CC(=O)c1ccc2c3c1[C@@H]1O[C@@H]1c1cccc(c1-3)[C@@H]1O[C@H]21 ; its TGI = 30.4 µM

# compound Nc1ccc2[nH]c3c(-c4ccccc4)nccc3c2c1 ; its TGI = > 100 µM

# compound Cc1cc(C2CC(O)C(CO)O2)cc2c(=O)[nH]c(N)nc12 (stereo unspecified) ; its TGI = > 100 µM

# compound Cc1cc[c-]cc1.Fc1c[c-]c(-c2ccccn2)c(F)c1.[Pt+2].c1ccc(P(C[PH+](c2ccccc2)c2ccccc2)c2ccccc2)cc1 ; its TGI = 10.6 µM

# compound COc1cc2ncn(-c3cc(OCCc4ccccc4)c(C(N)=O)s3)c2cc1OC ; its TGI = > 25 µM

# compound COc1ccc2c(c1)C(C)Cc1c(ncnc1-n1c(C)nc3ccccc31)N2C (stereo unspecified) ; its TGI = 8.79 µM

# compound O=C1CCCCC(=O)OC2(CCCCC2=O)CC1 (stereo unspecified) ; its TGI = > 100 µM

# compound COC(=O)/C(C#N)=C1\CCC(O)N1 (stereo unspecified) ; its TGI = > 100 µM

# compound COc1ccc2[nH]c3c4c(ccc3c2c1)C(=O)C=CC4=O ; its TGI = 20.8 µM

# compound COC(=O)[C@H](Cc1ccccc1)NC(=O)[C@H](Cc1ccccc1)NC(=O)[C@@H]1CCCN1C(=O)N[C@H]1C2C=CC(C2)C1C(=O)N1CCC[C@H]1C(=O)N[C@@H](C)C(=O)N[C@H](C(=O)OC)C(C)C (stereo partly specified) ; its TGI = > 100 µM

# compound COc1ccc(Nc2c3ccccc3nc3occ(Cl)c23)cc1 ; its TGI = < 0.0166 µM

# compound O=c1oc2ccccc2c(Nc2ccc3c(c2)Oc2ccccc2O3)c1[N+](=O)[O-] ; its TGI = 64.2 µM

# compound CC(=O)N1N=C(c2ccc3ccccc3c2O)CC1C(=O)c1ccco1 (stereo unspecified) ; its TGI = > 100 µM

# compound COc1ccc(C2c3cc(OC)c(OC)cc3C(Cc3ccc([N+](=O)[O-])cc3)C2c2ccc([N+](=O)[O-])cc2)cc1OC (stereo unspecified) ; its TGI = > 100 µM

# compound Nc1nc(SN=Nc2ccc(S(N)(=O)=O)cc2)c2[nH]cnc2n1 ; its TGI = 7.93 µM

# compound COC(=O)CCC(=O)CC1CC(=O)C2CCCN12 (stereo unspecified) ; its TGI = > 100 µM

# compound COc1ccc(O)cc1 ; its TGI = > 100 µM

# compound CCC(C#N)NC(=O)NC(C#N)CC (stereo unspecified) ; its TGI = > 100 µM

# compound C1C[OH+]CCNCC[OH+]CC[OH+]CCN1.[Cl-].[Pt+4] ; its TGI = > 100 µM

# compound CCOC(=N)CC(=O)Nc1cccc(C)c1C ; its TGI = > 100 µM

# compound CCC1(C(=O)OC(C)(C)C)OC12C(C)CCCC2C (stereo unspecified) ; its TGI = > 100 µM

# compound NC1=NS(=O)(=O)Nc2nc(-c3ccc(Cl)cc3)c(-c3ccc(Cl)cc3)nc21 ; its TGI = > 100 µM

# compound Cc1cc(C)cc(Nc2cc(=O)[nH]c(=O)[nH]2)c1 ; its TGI = > 100 µM

# compound COc1cccc(C2CC(C)=Nc3c(ccc4c3C(=O)c3ccccc3C4=O)N2)c1O (stereo unspecified) ; its TGI = 95.1 µM

# compound CC(C)(C=O)CC(C#N)/C(=N\NC(N)=O)C(=O)Nc1ccccc1C(N)=O (stereo unspecified) ; its TGI = > 100 µM

# compound CN[C@@H](C)[C@H](NC)c1ccccc1 ; its TGI = > 100 µM

# compound C[n+]1cc(C(O)c2ccc3c(c2)OCO3)c2ccccc2c1 (stereo unspecified) ; its TGI = > 100 µM

# compound CCn1c(CO)nn(-c2cc(O[C@@H](C)C(F)(F)F)c(C(=O)Nc3c(F)cccc3Cl)cc2F)c1=O ; its TGI = > 100 µM

# compound C[C@]12CC[C@H](O)C[C@H]1CC[C@@H]1[C@@H]2CC[C@]2(C)[C@@H](C3=CC(=O)OC3)CC[C@]12O ; its TGI = 0.204 µM

# compound O=C(COc1ccc(/C=C2\CSc3ccccc3C2=O)cc1)Nc1nccs1 ; its TGI = 4.25 µM

# compound CC(=O)c1sc(-c2nc(C)c(C(=O)/C=C\c3ccc(/C=C\C(=O)c4sc(-c5nc(C)c(C(C)=O)s5)nc4C)cc3)s2)nc1C ; its TGI = > 100 µM

# compound C=C1C(=O)O[C@H]2/C=C(/C)C3=CC(=O)[C@@](C)(C[C@@H](OC(=O)/C(C)=C\C)C12)O3 (stereo partly specified) ; its TGI = 5.04 µM

# compound Cc1cn2c(/C=C3\C(=O)N(C)c4ccc(O)cc43)c(C)nc2s1 ; its TGI = 17 µM

# compound COc1ccc2c(O)cc3c(c2c1)[C@H](CCl)CN3C(=O)c1cc2cc(NC(=O)CCN3CCOCC3)ccc2[se]1 ; its TGI = > 10 µM

# compound COc1cccc(-n2c3nc(=O)n(C)c(=O)c-3nc3ccccc32)c1 ; its TGI = 8.8 µM

# compound CN(NC(=O)c1cccs1)C1=NCCCN1 ; its TGI = > 100 µM

# compound O=C(Nc1ccc(-n2cc(-c3ccncc3)c(-c3ccc(Cl)c(O)c3)n2)cc1)Nc1ccc(Cl)c(C(F)(F)F)c1 ; its TGI = 3.11 µM

# compound CC1CCOc2ccc(cc2)C=Nc2ccc(cc2)CCc2ccc(cc2)N=Cc2ccc(cc2)OCC1 (stereo unspecified) ; its TGI = > 100 µM
